# System: ACHN renal
# assay_info: NCI-60 one-dose screen, 48 h
# assay_setup: 10 µM unless noted
# Method: Growth inhibition of the ACHN human tumor cell line is measured as a screen for anti-cancer activity. Cells are grown in 96 well plates and exposed to the test compound for 48 hours. Compounds are tested at a single concentration, which is 10^-5 M for most compounds. The reported endpoint is percent growth (GI% or GIPRCNT), where numbers from 0 - 100% represent growth inhibition, and numbers from -100% - 0 represent cell death. For example, a value of 40 represents 60% growth inhibition. […]
Compounds without any hit were thinned out: in the full panel of roughly 83,000, 20% have a hit. Active and inactive are the calls of the source. Rule for the calls: active = growth percent below 10; inactive = the rest.
Outcome (select one): active, inactive

Any idea what this test logged for N#CC1=C(/N=C/c2ccccc2)Oc2c(ccc3ccccc23)C1c1ccc([N+](=O)[O-])cc1 (stereo not drawn) ?
inactive

Hi, sorry to bother you, what did the test record for CC(=O)OC[C@]12CC[C@@H](C(=O)CBr)[C@@H]1[C@H]1CC[C@@H]3[C@@]4(C)CC[C@H](OC(C)=O)C(C)(C)[C@@H]4CC[C@@]3(C)[C@]1(C)CC2 ?
inactive

How was CCCCCOc1ccc(/C=N/Nc2cc(C)nc3ccc(Cl)cc23)cc1 classified in this test?
active
